target_of_assay: T1, human C5 R885H-mmh (human, UniProt P01031 19-1676)
T1 construct: also called human C5 variant R885H
assay_name: SPR, mAb captured via anti-hFc, 25C
measured_quantity: pKd
Reminder that pKd is minus the log10 of a molar concentration.

| binder | measured_quantity | numeric_result |
| --- | --- | --- |
| H4H12175P (antibody, human IgG4, V domains shown, Human IgG4 Fc with S108P hinge mutation (H4H)) VH: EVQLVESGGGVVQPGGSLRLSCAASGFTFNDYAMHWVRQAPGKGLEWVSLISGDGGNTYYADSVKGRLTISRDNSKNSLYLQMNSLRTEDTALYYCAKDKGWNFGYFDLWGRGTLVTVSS VL: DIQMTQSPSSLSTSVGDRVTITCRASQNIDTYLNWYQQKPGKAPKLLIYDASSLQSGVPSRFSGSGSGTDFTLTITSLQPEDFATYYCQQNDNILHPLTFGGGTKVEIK | pKd | 7.96 |
| H4H12161P (antibody, human IgG4, V domains shown, Human IgG4 Fc with S108P hinge mutation (H4H)) VH: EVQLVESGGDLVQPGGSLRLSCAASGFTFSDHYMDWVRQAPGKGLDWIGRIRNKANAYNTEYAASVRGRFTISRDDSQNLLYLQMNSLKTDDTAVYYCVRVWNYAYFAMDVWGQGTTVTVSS VL: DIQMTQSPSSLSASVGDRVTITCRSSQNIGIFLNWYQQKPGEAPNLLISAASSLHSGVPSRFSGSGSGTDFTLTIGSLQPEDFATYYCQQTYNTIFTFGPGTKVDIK | pKd | 9.00 |
| H4H12167P (antibody, human IgG4, V domains shown, Human IgG4 Fc with S108P hinge mutation (H4H)) VH: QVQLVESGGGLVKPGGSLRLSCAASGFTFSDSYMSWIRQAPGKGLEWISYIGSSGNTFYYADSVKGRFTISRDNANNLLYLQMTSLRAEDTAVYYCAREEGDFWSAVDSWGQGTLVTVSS VL: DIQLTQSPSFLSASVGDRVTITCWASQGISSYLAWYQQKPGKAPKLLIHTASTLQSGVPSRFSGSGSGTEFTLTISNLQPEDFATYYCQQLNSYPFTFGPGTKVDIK | pKd | 9.36 |
| H4H12171P (antibody, human IgG4, V domains shown, Human IgG4 Fc with S108P hinge mutation (H4H)) VH: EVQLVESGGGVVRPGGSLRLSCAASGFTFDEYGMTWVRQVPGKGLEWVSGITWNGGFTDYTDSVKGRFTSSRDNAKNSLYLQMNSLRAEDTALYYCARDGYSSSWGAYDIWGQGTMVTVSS VL: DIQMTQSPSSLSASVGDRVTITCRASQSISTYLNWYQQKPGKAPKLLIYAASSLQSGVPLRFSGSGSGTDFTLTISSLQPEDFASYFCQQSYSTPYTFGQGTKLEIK | pKd | 9.67 |

Query: Return the recorded pKd value; entry: H4H12164P (antibody, human IgG4, V domains shown, Human IgG4 Fc with S108P hinge mutation (H4H)) VH: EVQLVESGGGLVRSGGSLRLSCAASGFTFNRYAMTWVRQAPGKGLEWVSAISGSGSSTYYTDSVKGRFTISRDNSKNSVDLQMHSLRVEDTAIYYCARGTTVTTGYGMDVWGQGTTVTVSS VL: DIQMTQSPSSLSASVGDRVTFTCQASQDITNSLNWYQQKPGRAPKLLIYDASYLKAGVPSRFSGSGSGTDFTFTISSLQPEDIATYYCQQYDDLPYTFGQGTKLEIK
Reply: 8.92

Measured values drawn from patent US20170355757A1 for this set.
